# IC50 annotations
System tested: human adenosine A1 receptor (Homo sapiens, UniProt P30542)
Sequence (P30542 whole entry): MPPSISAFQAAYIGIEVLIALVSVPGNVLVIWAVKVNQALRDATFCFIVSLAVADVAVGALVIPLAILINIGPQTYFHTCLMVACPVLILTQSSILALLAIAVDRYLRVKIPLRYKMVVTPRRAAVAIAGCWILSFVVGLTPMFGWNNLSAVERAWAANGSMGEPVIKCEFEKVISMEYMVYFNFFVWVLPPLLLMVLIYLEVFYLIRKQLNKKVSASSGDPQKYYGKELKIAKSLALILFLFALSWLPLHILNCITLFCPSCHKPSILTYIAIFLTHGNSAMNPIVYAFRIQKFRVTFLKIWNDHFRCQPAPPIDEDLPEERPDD
Assay method text: Yeast β-Galactosidase reporter gene assay, inhibition of NECA-induced activity, strain CY12660
Measurement parameters: A1 Yeast IC50 (nM), Table 10, Effect of N6-Substituent

- Compound string: "Cc1[nH]c2nc(-c3ccccc3)nc(NCCNC(=O)C3CC3)c2c1C"
  IC50 / nM: 546
- Compound string: "CCC(=O)NCCCNc1nc(-c2ccccc2)nc2[nH]c(C)c(C)c12"
  IC50 / nM: 3010
- Compound string: "Cc1[nH]c2nc(-c3ccccc3)nc(NCCNC(=O)C(C)C)c2c1C"
  IC50 / nM: 3970
- Compound string: "Cc1[nH]c2nc(-c3ccccc3)nc(NCCO)c2c1C"
  IC50 / nM: 2000
- Compound string: "Cc1[nH]c2nc(-c3ccccc3)nc(NCCNC=O)c2c1C"
  IC50 / nM: 1870
